Molecular target: TNKS2 (Homo sapiens)
IC50: recorded values
Endpoint name: IC50

- Smiles string: "O=C(N[C@H]1CC[C@H](C(=O)Nc2ccc(F)cc2Cl)CC1)c1[nH]cnc1C(=O)N1CCC1"
  Result: "25 nM"
- Smiles string: "O=C(N[C@H]1CC[C@@]2(CCN(c3ccc(F)cc3Cl)C2=O)CC1)c1[nH]cnc1C(=O)N1CC(O)C1"
  Result: "5.3 nM"
- Smiles string: "O=C(NCC(F)(F)F)c1nc[nH]c1C(=O)N[C@H]1CC[C@H](C(=O)Nc2ccc(F)cc2Cl)CC1"
  Result: "83 nM"
- Smiles string: "CCNC(=O)c1nc[nH]c1C(=O)N[C@H]1CC[C@H](C(=O)Nc2ccc(F)cc2Cl)CC1"
  Result: "42 nM"

====

Biological target: TNKS1 (Homo sapiens)
Sequence (O95271 1-1327): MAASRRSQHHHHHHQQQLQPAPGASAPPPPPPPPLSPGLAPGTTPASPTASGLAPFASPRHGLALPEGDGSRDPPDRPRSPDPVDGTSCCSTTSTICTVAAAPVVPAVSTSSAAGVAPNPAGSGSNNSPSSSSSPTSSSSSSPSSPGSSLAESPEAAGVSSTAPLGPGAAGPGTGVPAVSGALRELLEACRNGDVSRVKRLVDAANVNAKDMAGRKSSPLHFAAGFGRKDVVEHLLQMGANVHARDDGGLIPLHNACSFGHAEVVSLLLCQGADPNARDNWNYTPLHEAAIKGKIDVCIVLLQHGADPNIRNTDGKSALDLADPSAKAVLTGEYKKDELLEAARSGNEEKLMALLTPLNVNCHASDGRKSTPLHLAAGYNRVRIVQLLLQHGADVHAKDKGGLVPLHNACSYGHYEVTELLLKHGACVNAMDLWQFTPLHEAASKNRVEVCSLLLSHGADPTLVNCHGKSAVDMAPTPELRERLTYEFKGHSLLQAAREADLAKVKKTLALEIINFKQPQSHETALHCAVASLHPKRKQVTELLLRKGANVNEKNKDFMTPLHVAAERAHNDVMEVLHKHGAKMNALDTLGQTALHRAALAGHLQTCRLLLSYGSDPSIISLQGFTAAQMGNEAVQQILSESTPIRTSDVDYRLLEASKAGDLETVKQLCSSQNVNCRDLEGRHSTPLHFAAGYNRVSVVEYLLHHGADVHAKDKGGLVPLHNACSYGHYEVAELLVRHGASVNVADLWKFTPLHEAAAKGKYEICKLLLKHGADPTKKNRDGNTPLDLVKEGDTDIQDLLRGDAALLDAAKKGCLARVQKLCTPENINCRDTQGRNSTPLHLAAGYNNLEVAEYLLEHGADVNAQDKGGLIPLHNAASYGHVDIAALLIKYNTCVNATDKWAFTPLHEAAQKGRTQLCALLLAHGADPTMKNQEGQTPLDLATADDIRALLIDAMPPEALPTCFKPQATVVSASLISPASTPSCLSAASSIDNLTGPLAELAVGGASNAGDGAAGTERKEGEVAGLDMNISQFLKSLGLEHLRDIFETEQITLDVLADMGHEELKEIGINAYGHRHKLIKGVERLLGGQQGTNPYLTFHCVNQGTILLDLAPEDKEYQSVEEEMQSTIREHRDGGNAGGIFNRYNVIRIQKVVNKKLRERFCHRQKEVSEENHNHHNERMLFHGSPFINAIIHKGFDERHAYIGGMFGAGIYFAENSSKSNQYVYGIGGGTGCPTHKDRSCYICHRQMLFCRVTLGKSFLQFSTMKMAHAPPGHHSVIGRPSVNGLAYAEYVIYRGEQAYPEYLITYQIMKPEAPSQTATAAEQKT
IC50: recorded values

- Compound: "COCc1cc(C)nc2c(C(=O)N[C@H]3CC[C@H](C(=O)Nc4ccc(F)cc4Cl)CC3)cnn12 [Example 111]"
  Test system: "TNKS1 (Homo sapiens)"
  IC50: "0.52 µM"
- Compound: "CC1CCN(CCNC(=O)c2nc[nH]c2C(=O)N[C@H]2CC[C@@]3(CCN(c4ccc(F)cc4Cl)C3=O)CC2)CC1 [Example 160]"
  Test system: "TNKS1 (Homo sapiens)"
  IC50: "0.008 µM"
- Compound: "CNC(=O)c1nc[nH]c1C(=O)N[C@H]1CC[C@H](C(=O)N(C)c2ccccc2C)CC1 [Example 203]"
  Test system: "TNKS1 (Homo sapiens)"
  IC50: "0.63 µM"
- Compound: "COCC(C)NC(=O)c1nc[nH]c1C(=O)N[C@H]1CC[C@H](C(=O)Nc2cc(F)c(F)cc2Cl)CC1 (stereo partly shown) [Example 87]"
  Test system: "TNKS1 (Homo sapiens)"
  IC50: "0.027 µM"

====

Target: TNKS2 (Homo sapiens, UniProt Q9H2K2)
Construct: purchased BPS Bioscience, San Diego, USA 80572 (TNKS2 Histone Ribosylation Assay Kit)
Test: TNKS2 Assay B (auto-parsylation, [3H]-NAD+ SPA)
Assay type: biochemical
Settings: 6 nM TNKS2, auto-parsylation, over night at room temperature

- Smiles string: "Cc1cc(C)n2ncc(C(=O)N[C@H]3CC[C@H](C(=O)Nc4cc(F)c(F)cc4Cl)CC3)c2n1"
  IC50 (nM): 33
- Smiles string: "O=C(N[C@H]1CC[C@@]2(CCN(c3cc(F)c(F)cc3Cl)C2=O)CC1)c1[nH]cnc1C(=O)N1CC(F)C1"
  IC50 (nM): 2.6
- Smiles string: "CNC(=O)c1nc[nH]c1C(=O)N[C@H]1CC[C@@]2(CCN(c3cc(F)c(F)cc3Cl)C2=O)CC1"
  IC50 (nM): 2.4
- Smiles string: "O=C(N[C@H]1CC[C@@]2(CCN(c3cccc(Cl)c3)C2=O)CC1)c1c[nH]c2cccnc12"
  IC50 (nM): 300

====

Tested on: wildtype Wnt signaling cascade
Assay: HEK293 TOP assay (Super TopFlash luciferase reporter, Wnt-3a stimulated)
Assay type: cell-based
Conditions: HEK293 TOP reporter cells, Wnt3a at EC50, 16 hours
pIC50: −log10 of the molar value.

- Molecule: "Cc1c(C(C)N(C)C)cnc2c(C(=O)N[C@H]3CC[C@H](C(=O)Nc4ccc(F)cc4Cl)CC3)cnn12 (single isomer, unassigned) [Example 56]"
  Test system: "wildtype Wnt signaling cascade"
  pIC50: 6.00
- Molecule: "CNC(=O)c1[nH]cnc1C(=O)NC1CCC(C(=O)Nc2ccc(F)cc2Cl)CC1OC (stereo not shown) [Example 37]"
  Test system: "wildtype Wnt signaling cascade"
  pIC50: 4.37
- Molecule: "CNC(=O)c1[nH]cnc1C(=O)NC1CCC(C(=O)Nc2ccc(F)cc2Cl)CC1OC (stereo not shown) [Example 36]"
  Test system: "wildtype Wnt signaling cascade"
  pIC50: 5.31
- Molecule: "CC1CC2(CCC(NC(=O)c3cnn4cccnc34)CC2)C(=O)N1c1ccc(F)cc1Cl (single isomer, unassigned; enantiomer 2) [Example 357]"
  Test system: "wildtype Wnt signaling cascade"
  pIC50: 8.28
- Molecule: "Cc1c(C(C)N(C)C)cnc2c(C(=O)N[C@H]3CC[C@H](C(=O)Nc4ccc(F)cc4Cl)CC3)cnn12 (single isomer, unassigned) [Example 57]"
  Test system: "wildtype Wnt signaling cascade"
  pIC50: 6.51
- Molecule: "CNC(=O)c1[nH]cnc1C(=O)NC1CCC(C(=O)Nc2ccc(F)cc2Cl)CC1C (stereo not shown)"
  Test system: "wildtype Wnt signaling cascade"
  pIC50: 6.34
- Molecule: "CC1CC2(CCC(NC(=O)c3cnn4cccnc34)CC2)C(=O)N1c1ccc(F)cc1Cl (single isomer, unassigned; enantiomer 1) [Example 356]"
  Test system: "wildtype Wnt signaling cascade"
  pIC50: 7.59

====

Target: TNKS2 (Homo sapiens)
Sequence (Q9H2K2 1-1166): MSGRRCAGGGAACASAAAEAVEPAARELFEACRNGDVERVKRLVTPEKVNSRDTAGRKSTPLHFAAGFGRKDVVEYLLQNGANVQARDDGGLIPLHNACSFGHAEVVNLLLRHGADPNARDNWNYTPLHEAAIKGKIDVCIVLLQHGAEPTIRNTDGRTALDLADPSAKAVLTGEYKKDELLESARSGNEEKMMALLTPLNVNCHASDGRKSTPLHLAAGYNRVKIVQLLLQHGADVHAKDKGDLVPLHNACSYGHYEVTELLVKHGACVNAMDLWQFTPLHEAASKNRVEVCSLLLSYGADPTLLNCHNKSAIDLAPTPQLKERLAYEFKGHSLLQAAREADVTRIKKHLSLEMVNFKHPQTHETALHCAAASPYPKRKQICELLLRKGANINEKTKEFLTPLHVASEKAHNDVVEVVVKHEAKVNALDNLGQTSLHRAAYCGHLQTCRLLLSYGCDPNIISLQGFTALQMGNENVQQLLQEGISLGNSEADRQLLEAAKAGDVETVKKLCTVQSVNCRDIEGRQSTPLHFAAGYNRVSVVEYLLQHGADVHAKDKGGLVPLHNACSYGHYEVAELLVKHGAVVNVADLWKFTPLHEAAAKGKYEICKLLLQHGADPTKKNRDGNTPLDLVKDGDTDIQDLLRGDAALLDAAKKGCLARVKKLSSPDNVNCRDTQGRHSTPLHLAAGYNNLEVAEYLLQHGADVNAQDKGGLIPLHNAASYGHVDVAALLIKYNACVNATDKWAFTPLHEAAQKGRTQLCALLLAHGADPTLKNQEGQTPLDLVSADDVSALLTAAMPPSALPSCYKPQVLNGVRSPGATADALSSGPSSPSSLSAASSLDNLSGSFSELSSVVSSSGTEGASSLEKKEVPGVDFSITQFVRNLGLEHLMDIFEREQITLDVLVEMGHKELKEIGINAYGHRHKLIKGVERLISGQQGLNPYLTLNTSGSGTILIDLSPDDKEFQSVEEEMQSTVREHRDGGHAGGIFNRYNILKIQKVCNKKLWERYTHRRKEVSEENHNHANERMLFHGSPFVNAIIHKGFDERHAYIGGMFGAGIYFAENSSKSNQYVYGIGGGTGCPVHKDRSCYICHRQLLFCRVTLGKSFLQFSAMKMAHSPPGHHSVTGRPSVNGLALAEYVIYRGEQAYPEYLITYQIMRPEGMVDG

- Smiles string: "CN1CCN(C(=O)c2nc[nH]c2C(=O)N[C@H]2CC[C@@]3(CCN(c4cccc(Cl)c4)C3=O)CC2)CC1"
  Test system: "TNKS2 (Homo sapiens)"
  Measure unit: "nM"
  IC50: 4300
- Smiles string: "O=C(NCCO)c1nc[nH]c1C(=O)N[C@H]1CC[C@H](C(=O)Nc2ccc(F)cc2Cl)CC1"
  Test system: "TNKS2 (Homo sapiens)"
  Measure unit: "nM"
  IC50: 120
- Smiles string: "CC(C)NC(=O)c1nc[nH]c1C(=O)N[C@H]1CC[C@@]2(CCN(c3cccc(Cl)c3)C2=O)CC1"
  Test system: "TNKS2 (Homo sapiens)"
  Measure unit: "nM"
  IC50: 170
- Smiles string: "Cc1cc(C)n2ncc(C(=O)NC34CCC(C(=O)Nc5cnccc5Cl)(CC3)CC4)c2n1"
  Test system: "TNKS2 (Homo sapiens)"
  Measure unit: "nM"
  IC50: 96
